Test system: calf thymus DNA
assay_name: Ethidium bromide displacement fluorescence assay
Assay type: binding
particulars: fluorescence intensity as a function of vector/DNA charge ratio
metric_name: displacement of DNA-intercalated ethidium bromide (fluorescence intensity)

compound: C[N+](C)(C)CCOP(=O)([O-])OCC(COC(=O)CCCCCCCCCCC(=O)OCc1ccccc1)OC(=O)CCCCCCCCCCC(=O)OCc1ccccc1 (racemic) [Compound 4]
reading: do not displace EtBr

compound: CCCCCCCC/C=C\CCCCCCCC(=O)OC[C@H](COP(=O)(O)OCCN)OC(=O)CCCCCCC/C=C\CCCCCCCC [DOPE, dioleylphosphatidyl ethanolamine]
reading: do not displace EtBr

compound: CCCCCCCC/C=C\CCCCCCCC(=O)OC[C@H](COP(=O)([O-])OCC[N+](C)(C)C)OC(=O)CCCCCCC/C=C\CCCCCCCC [DOPC, dioleylphosphatidyl choline]
reading: do not displace EtBr
